Origin of values: ChEMBL document CHEMBL1145837

- target_under_test: Seed linoleate 13S-lipoxygenase-1 (Glycine max)
- Sequence (whole entry): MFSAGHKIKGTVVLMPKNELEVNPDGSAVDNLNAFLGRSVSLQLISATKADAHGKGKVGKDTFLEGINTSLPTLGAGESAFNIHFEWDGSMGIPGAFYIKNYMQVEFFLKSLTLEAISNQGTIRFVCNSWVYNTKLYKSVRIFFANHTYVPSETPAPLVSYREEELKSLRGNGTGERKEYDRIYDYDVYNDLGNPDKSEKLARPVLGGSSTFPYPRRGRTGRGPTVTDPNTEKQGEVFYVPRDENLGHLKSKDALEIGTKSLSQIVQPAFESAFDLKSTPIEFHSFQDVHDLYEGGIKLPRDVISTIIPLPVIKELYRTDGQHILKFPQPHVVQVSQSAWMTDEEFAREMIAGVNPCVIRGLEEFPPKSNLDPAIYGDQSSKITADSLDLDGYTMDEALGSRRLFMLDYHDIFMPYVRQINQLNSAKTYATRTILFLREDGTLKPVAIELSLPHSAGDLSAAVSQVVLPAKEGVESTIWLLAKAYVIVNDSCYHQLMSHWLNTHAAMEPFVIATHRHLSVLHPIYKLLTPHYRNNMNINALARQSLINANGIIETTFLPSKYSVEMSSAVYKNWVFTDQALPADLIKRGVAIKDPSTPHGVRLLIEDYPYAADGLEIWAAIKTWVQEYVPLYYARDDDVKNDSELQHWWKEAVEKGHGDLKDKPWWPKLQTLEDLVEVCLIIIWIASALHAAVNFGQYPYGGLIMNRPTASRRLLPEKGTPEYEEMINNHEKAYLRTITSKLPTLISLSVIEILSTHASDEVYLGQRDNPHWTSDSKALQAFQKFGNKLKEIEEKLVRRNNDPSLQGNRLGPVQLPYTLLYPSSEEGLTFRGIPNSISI
- procedure_details: Inhibition of LDL oxidation induced by soybean lipoxygenase (SLO) at 0.5 uM expressed as % control.
- Assay type: functional
outcome_measure: LDL oxidation remaining, % of control (%)
Numbers only; they are read as %.

The following molecules have reported results that may help.
>>> df
                                   molecule                        outcome_measure  numeric_readout
0  CCCCCCCCC1(CCCCCCCC)Cc2c(cc(C(C)(C)C)c(O)c2C(C)(C)C)O1  LDL oxidation remaining, % of control             89.8
1  CC(C)(C)c1cc2c(c(C(C)(C)C)c1O)CC1(CCCCC1)O2  LDL oxidation remaining, % of control             34.1
2  CC(C)(C)c1cc2c(c(C(C)(C)C)c1O)CC1(CCOCC1)O2  LDL oxidation remaining, % of control             71.8

Let us examine a further case.
Quick note, LDL oxidation remaining, % of control for CC(C)(C)c1cc2c(c(C(C)(C)C)c1O)CC(C(C)(C)C)O2 (centres undefined) landed at 99
